Molecular target: Mu-type opioid receptor (Cavia porcellus)
Test: Inhibitory concentration was tested on electrically stimulated guinea pig ileal longitudinal muscle using Morphine as mu opioid receptor agonist at 100 nM of the compound
Assay type: functional
Provide the recorded Ratio for the entries that follow.
One number for each entry.

Oc1ccc2c3c1O[C@H]1c4[nH]c5c(c4C[C@@]4(O)[C@@H](C2)N(CCc2ccccc2)CC[C@]314)C[C@@]1(O)[C@H]2Cc3ccc(O)c4c3[C@@]1(CCN2CC1CC1)[C@H]5O4    1.8
CCN1CC[C@]23c4c5ccc(O)c4O[C@H]2c2[nH]c4c(c2C[C@@]3(O)[C@H]1C5)C[C@@]1(O)[C@H]2Cc3ccc(O)c5c3[C@@]1(CCN2CC1CC1)[C@H]4O5    1.6
Oc1ccc2c3c1O[C@H]1c4[nH]c5c(c4C[C@@]4(O)[C@@H](C2)NCC[C@]314)C[C@@]1(O)[C@H]2Cc3ccc(O)c4c3[C@@]1(CCN2CC1CC1)[C@H]5O4    1.9

query: Fill in the blank: the reported Ratio of `NCC(=O)N1CC[C@]23c4c5ccc(O)c4O[C@H]2c2[nH]c4c(c2C[C@@]3(O)[C@H]1C5)C[C@@]1(O)[C@H]2Cc3ccc(O)c5c3[C@@]1(CCN2CC1CC1)[C@H]4O5` is ____.
result: 1.4
